TGT: UniProt:P33535
Sequence (P33535 whole entry): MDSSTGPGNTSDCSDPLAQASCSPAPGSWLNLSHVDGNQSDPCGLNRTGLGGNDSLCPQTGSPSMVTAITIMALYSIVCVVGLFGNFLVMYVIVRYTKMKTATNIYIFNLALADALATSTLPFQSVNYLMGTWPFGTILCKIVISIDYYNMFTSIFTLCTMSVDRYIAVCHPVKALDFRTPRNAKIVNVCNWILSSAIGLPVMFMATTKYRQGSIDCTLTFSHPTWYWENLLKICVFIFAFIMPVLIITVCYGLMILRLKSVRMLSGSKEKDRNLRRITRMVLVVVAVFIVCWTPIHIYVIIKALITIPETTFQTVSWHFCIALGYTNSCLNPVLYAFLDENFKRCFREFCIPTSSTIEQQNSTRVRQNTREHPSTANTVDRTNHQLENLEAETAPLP
MEASUREMENT_TYPE: Ki

For each of the items listed, what is its Ki?
1. CC(C)CCCCN1CC[C@@](C)(c2cccc(O)c2)[C@@H](C)C1 (stereo in doubt; 21)
2. C[C@@H]1CN(CC[C@@H](O)C2CCCCC2)CC[C@]1(C)c1cccc(O)c1

Marked response:
1. 0.46 nM
2. 2.2 nM

Below are 7 molecules. Give each one its Ki.
1. CC(C)CCN1CC[C@@](C)(c2cccc(O)c2)[C@@H](C)C1
2. C[C@H]1CN(CCC2CCCCC2)CC[C@@]1(C)c1cccc(O)c1
3. C[C@H]1CN(CC[C@@H](O)C2CCCCC2)CC[C@@]1(C)c1cccc(O)c1
4. C[C@H]1CN(CCC(O)C2CCCC2)CC[C@@]1(C)c1cccc(O)c1 (stereo not given in full)
5. C[C@H]1CN(CCC(O)C2CCCCC2)CC[C@@]1(C)c1cccc(O)c1 (stereo not given in full)
6. CC(C)CCCCN1CC[C@](C)(c2cccc(O)c2)[C@H](C)C1
7. CCCCCCN1CC[C@@](C)(c2cccc(O)c2)[C@@H](C)C1 (stereo in doubt; 37)

Marked response:
1. 32 nM
2. 0.65 nM
3. 2.4 nM
4. 0.41 nM
5. 0.29 nM
6. 1.36 nM
7. 1.1 nM

Exam item: Suppose we examine the molecule C[C@H]1CN(CCC2C=CCC2)CC[C@@]1(C)c1cccc(O)c1 (stereo not given in full) ; what Ki value has been reported?
Marked response: 12 nM

###

Test system: Rattus norvegicus
TEST_METHOD_NOTES: Tested for concentration required to reduce the food consumption by 20 % subcutaneously
Format: functional
EXPERIMENTAL_CONTEXT: Rattus norvegicus, sc; read-out: ED50
Please use 1.0 for ED50 under 0.5 mg/kg and 0.0 for everything else, ties included.

CC(C)C(O)CCN1CC[C@@](C)(c2cccc(O)c2)[C@@H](C)C1 (some centres undefined)
0.0
C[C@H]1CN(CCC2CCCC2)CC[C@@]1(C)c1cccc(O)c1
1.0
CC(C)CCCCN1CC[C@](C)(c2cccc(O)c2)[C@H](C)C1
1.0
C[C@H]1CN(CC[C@H](O)C2CCCCC2)CC[C@@]1(C)c1cccc(O)c1
1.0
C[C@H]1CN(CCC(=O)C2CCCCC2)CC[C@@]1(C)c1cccc(O)c1
1.0

# ---- query molecule ----
Exam item: Is it true that ED50 reported for C[C@@H]1CN(CCCc2cccs2)CC[C@]1(C)c1cccc(O)c1 is less than 0.5 mg/kg?
Marked response: 1.0

###

Test system: Rattus norvegicus
TEST_METHOD_NOTES: Tested for concentration required to reduce the food consumption by 20 % subcutaneously
Type: functional
EXPERIMENTAL_CONTEXT: Rattus norvegicus, sc; read-out: ED50
MEASUREMENT_TYPE: ED50

Known results for compounds:
C[C@H]1CN(CCC2C=CCC2)CC[C@@]1(C)c1cccc(O)c1 (some centres undefined)
0.44 mg/kg
C[C@H]1CN(CCC(O)C2CCCCC2)CC[C@@]1(C)c1cccc(O)c1 (some centres undefined)
0.05 mg/kg
C=C(C)CCCN1CC[C@@](C)(c2cccc(O)c2)[C@@H](C)C1
0.29 mg/kg

Here is another compound to look at.
Exam item: Endpoint output: ED50 of CCCCCN1CC[C@@](C)(c2cccc(O)c2)[C@@H](C)C1 . Value?
Marked response: 3.8 mg/kg
